In this section, each of the compounds is paired with its reported IC50.
- System tested: full-length beta-Catenin (Uniprot ID P35222) (Homo sapiens)
- Construct: 10 nM full-length beta-Catenin (Uniprot ID P35222)
- Sequence (P35222 1-781): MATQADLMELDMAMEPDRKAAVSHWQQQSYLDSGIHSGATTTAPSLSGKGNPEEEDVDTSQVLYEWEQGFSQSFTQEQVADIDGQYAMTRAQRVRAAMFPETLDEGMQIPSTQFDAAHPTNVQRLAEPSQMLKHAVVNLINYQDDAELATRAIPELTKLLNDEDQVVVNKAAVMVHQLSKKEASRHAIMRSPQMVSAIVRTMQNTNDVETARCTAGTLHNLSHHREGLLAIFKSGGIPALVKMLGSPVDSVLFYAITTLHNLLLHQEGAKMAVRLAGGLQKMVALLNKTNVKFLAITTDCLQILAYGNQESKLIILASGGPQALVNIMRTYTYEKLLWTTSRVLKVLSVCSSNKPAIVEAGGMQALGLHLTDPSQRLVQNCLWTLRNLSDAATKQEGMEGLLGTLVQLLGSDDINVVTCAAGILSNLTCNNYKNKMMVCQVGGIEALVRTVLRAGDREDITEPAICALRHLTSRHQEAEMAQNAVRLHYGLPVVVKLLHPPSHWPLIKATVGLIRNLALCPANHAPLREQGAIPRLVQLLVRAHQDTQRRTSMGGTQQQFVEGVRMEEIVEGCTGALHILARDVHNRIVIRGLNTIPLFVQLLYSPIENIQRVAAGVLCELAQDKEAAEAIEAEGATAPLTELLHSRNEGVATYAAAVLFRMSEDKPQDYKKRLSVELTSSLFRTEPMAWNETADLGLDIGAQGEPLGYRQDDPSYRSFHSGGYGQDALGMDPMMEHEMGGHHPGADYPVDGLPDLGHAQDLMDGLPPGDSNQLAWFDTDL
- Assay: Fluorescence polarization IC50 (beta-catenin / 5FAM-TCF4 10-53 competition)
- Format: binding
- Condition notes: fluorescence polarization; read-out: beta-Catenin FP IC50
Record the value in nM, omitting the unit from your answer.

Example cases with answers are listed next.
Compound	Unit text	IC50
CC(=O)N1CCC[C@]12CC=CCCCC1(CCCC=CCCCCCC[C@@](C)(C(=O)N[C@@H](Cc3ccccc3)C(=O)N[C@@H](Cc3csc4ccccc34)C(=O)N[C@@H](CCC(N)=O)C(N)=O)NC(=O)[C@H](CCC(N)=O)NC(=O)[C@H](Cc3ccccc3)NC(=O)[C@H](C)NC(=O)[C@H](C)NC(=O)[C@H](CCC(=O)O)NC(=O)[C@H](CC(=O)O)NC1=O)NC(=O)[C@H](CCCCN)NC(=O)[C@H](CC(=O)O)NC2=O (stereo partly drawn)	nM	56
CC(=O)N1CCC[C@]12CC=CCCCC1(CCCC=CCCCOC(=O)N3CC[C@@](C(=O)N[C@@H](Cc4ccsc4)C(=O)N[C@@H](Cc4csc5ccccc45)C(=O)N[C@@H](CCC(N)=O)C(N)=O)(C3)NC(=O)[C@H](CC(C)C)NC(=O)[C@H](Cc3ccccc3)NC(=O)[C@H](C)NC(=O)[C@H](C)NC(=O)[C@H](CNc3ccc(N)cc3C(=O)O)NC(=O)[C@H](CC(=O)O)NC1=O)NC(=O)[C@H](CC(C)(C)C)NC(=O)[C@H](CC(=O)O)NC2=O (stereo partly drawn)	nM	26
CC(=O)NCCCC[C@H](NC(=O)[C@H](Cc1csc2ccccc12)NC(=O)[C@H](Cc1ccsc1)NC(=O)[C@]12CCN(C1)C(=O)OCCCC=CCCCC1(CCCC=CC[C@]3(CCCN3C(C)=O)C(=O)N[C@@H](CC(=O)O)C(=O)N[C@@H](CC(C)(C)C)C(=O)N1)C(=O)N[C@@H](CC(=O)O)C(=O)N[C@@H](CN(CC(=O)O)CC(F)(F)F)C(=O)N[C@@H](C)C(=O)N[C@@H](C)C(=O)N[C@@H](Cc1ccccc1)C(=O)N[C@@H](CC(C)C)C(=O)N2)C(N)=O (stereo partly drawn)	nM	14
CC(=O)N1CCC[C@]12CC=CCCCC1(CCCC=CCCCCCC[C@@](C)(C(=O)N[C@@H](Cc3ccccc3Cl)C(=O)N[C@@H](Cc3csc4ccccc34)C(=O)N[C@H](CCC(N)=O)C(N)=O)NC(=O)[C@H](CC(C)C)NC(=O)[C@H](Cc3ccccc3)NC(=O)[C@H](C)NC(=O)[C@H](C)NC(=O)[C@H](CC(=O)O)NC(=O)[C@H](CC(=O)O)NC1=O)NC(=O)[C@H](CC(C)(C)C)NC(=O)[C@H](CC(=O)O)NC2=O (stereo partly drawn)	nM	65

// field: IC50; key: CC(=O)N1CCC[C@]12CC=CCCCC1(CCCC=CCCCOC(=O)N3CC[C@@](C(=O)N[C@@H](Cc4ccccc4C(F)(F)F)C(=O)N[C@@H](Cc4csc5ccccc45)C(=O)N[C@@H](CCS(C)(=O)=O)C(N)=O)(C3)NC(=O)[C@H](CC(C)C)NC(=O)[C@H](Cc3ccccc3)NC(=O)[C@H](C)NC(=O)[C@H](C)NC(=O)[C@H](Cc3cccc(C(=O)O)c3)NC(=O)[C@H](CC(=O)O)NC1=O)NC(=O)[C@H](CC(C)(C)C)NC(=O)[C@H](CC(=O)O)NC2=O (stereo partly drawn) ; value = 56

// field: IC50; key: CC(=O)N1CCC[C@]12CC=CCCCC1(CCCC=CCCCOC(=O)N3CC[C@@](C(=O)N[C@@H](Cc4ccsc4)C(=O)N[C@@H](Cc4cccc(Cl)c4)C(=O)N[C@@H](CCC(N)=O)C(N)=O)(C3)NC(=O)[C@H](CC(C)C)NC(=O)[C@H](Cc3ccccc3)NC(=O)[C@H](C)NC(=O)[C@H](C)NC(=O)[C@H](Cc3cccc(C(=O)O)c3)NC(=O)[C@H](CC(=O)O)NC1=O)NC(=O)[C@H](CC(C)(C)C)NC(=O)[C@H](CC(=O)O)NC2=O (stereo partly drawn) ; value = 14

// field: IC50; key: CC[C@@H]1NC(=O)[C@H](Cc2ccccc2)NC(=O)[C@H](C)NC(=O)C(C)(C)NC(=O)[C@H](Cc2cccc(C(=O)O)c2)NC(=O)[C@H](CC(=O)O)NC(=O)C2(CCCC=CCCCOC(=O)N3CC[C@@](C(=O)N[C@@H](Cc4ccsc4)C(=O)N[C@@H](Cc4csc5ccccc45)C(=O)N[C@@H](CCC(=O)N(C)C)C(=O)N[C@@H](C)C(N)=O)(C3)NC1=O)CCCC=CC[C@]1(CCCN1C(C)=O)C(=O)N[C@@H](CC(=O)O)C(=O)N[C@@H](CC(C)(C)C)C(=O)N2 (stereo partly drawn) ; value = 7

// field: IC50; key: CC(=O)N1CCC[C@]12CC=CCCCC1(CCCC=CCCCCOC(=O)N3CC(C(=O)N[C@@H](Cc4ccccc4C(F)(F)F)C(=O)N[C@@H](Cc4csc5ccccc45)C(=O)N[C@@H](CCC(N)=O)C(N)=O)(C3)NC(=O)[C@H](CC(C)C)NC(=O)[C@H](Cc3ccccc3)NC(=O)[C@H](C)NC(=O)[C@H](C)NC(=O)[C@H](Cc3cccc(C(=O)O)c3)NC(=O)[C@H](CC(=O)O)NC1=O)NC(=O)[C@H](CC(C)(C)C)NC(=O)[C@H](CC(=O)O)NC2=O (stereo partly drawn) ; value = 188

// field: IC50; key: CC(=O)N1CCC[C@]12CC=CCCCC1(CCCC=CCCCOC(=O)N3CC[C@@](C(=O)N[C@@H](Cc4ccsc4)C(=O)N[C@@H](Cc4csc5ccccc45)C(=O)N[C@@H](CC(N)=O)C(N)=O)(C3)NC(=O)[C@H](Cc3ccccc3)NC(=O)[C@H](Cc3ccccc3)NC(=O)[C@H](C)NC(=O)[C@H](C)NC(=O)[C@H](Cc3cccc(C(=O)O)c3)NC(=O)[C@H](CC(=O)O)NC1=O)NC(=O)[C@H](CC(C)(C)C)NC(=O)[C@H](CC(=O)O)NC2=O (stereo partly drawn) ; value = 9

---

In this section, each of the molecules is paired with its reported IC50.
- System tested: full-length beta-Catenin (Uniprot ID P35222) (Homo sapiens, UniProt P35222)
- Construct: 10 nM full-length beta-Catenin (Uniprot ID P35222)
- Sequence (P35222 1-781): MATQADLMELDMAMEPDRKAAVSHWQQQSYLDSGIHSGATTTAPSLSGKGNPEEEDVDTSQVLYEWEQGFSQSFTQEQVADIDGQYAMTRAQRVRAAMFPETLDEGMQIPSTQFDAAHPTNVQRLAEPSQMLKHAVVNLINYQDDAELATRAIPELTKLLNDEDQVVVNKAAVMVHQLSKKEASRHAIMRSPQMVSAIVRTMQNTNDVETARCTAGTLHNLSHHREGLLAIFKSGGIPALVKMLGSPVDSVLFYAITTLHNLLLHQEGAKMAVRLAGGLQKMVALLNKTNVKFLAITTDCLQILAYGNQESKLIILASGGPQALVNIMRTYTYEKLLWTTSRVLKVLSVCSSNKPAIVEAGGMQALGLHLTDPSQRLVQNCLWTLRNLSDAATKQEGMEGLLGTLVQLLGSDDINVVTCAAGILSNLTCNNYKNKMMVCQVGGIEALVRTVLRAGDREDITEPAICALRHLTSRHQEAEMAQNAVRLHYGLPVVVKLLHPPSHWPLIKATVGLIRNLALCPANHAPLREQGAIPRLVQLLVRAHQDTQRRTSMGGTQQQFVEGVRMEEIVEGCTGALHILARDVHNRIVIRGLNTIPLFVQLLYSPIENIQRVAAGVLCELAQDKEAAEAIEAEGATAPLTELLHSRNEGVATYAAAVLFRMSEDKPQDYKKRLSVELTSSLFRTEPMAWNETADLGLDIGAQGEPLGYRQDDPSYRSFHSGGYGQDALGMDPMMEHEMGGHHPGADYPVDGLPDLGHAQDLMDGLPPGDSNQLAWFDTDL
- Assay: Fluorescence polarization IC50 (beta-catenin / 5FAM-TCF4 10-53 competition)
- Format: binding
- Condition notes: fluorescence polarization; read-out: beta-Catenin FP IC50
Record the value in nM, omitting the unit from your answer.

Example cases with answers are listed next.
Molecule	Unit text	IC50
CC(=O)N1CCC[C@]12CC=CCCCC1(CCCC=CCCCOC(=O)N3CC[C@@](C(=O)N[C@@H](Cc4ccccc4Cl)C(=O)N[C@@H](Cc4csc5ccccc45)C(=O)N[C@@H](CCC(N)=O)C(N)=O)(C3)NC(=O)[C@H]([C@@H](C)O)NC(=O)[C@H](Cc3ccccc3)NC(=O)CNC(=O)[C@H](C)NC(=O)[C@H](CN(CC(=O)O)CC(F)(F)F)NC(=O)[C@H](CC(=O)O)NC1=O)NC(=O)[C@H](CC(C)(C)C)NC(=O)[C@H](CC(=O)O)NC2=O (stereo partly drawn)	nM	57
CC(=O)N1CCC[C@]12CC=CCCCC1(CCCC=CCCCOC(=O)N3CC[C@@](C(=O)N[C@@H](Cc4ccsc4)C(=O)N[C@@H](Cc4csc5ccccc45)C(=O)N[C@H](C(N)=O)C(C)C)(C3)NC(=O)[C@H](CC(C)C)NC(=O)[C@H](Cc3ccccc3)NC(=O)[C@H](C)NC(=O)[C@H](CCC(N)=O)NC(=O)[C@H](Cc3cccc(C(=O)O)c3)NC(=O)[C@H](CC(=O)O)NC1=O)NC(=O)[C@H](CC(C)(C)C)NC(=O)[C@H](CC(=O)O)NC2=O (stereo partly drawn)	nM	13

// field: IC50; key: COC(=O)C[C@@H]1NC(=O)C2(CCCC=CCCCOC(=O)N3CC[C@@](C(=O)N[C@@H](Cc4ccsc4)C(=O)N[C@@H](Cc4csc5ccccc45)C(=O)N[C@@H](CCC(N)=O)C(N)=O)(C3)NC(=O)[C@H](CC(C)C)NC(=O)[C@H](Cc3ccccc3)NC(=O)[C@H](C)NC(=O)[C@H](C)NC(=O)[C@H](CC(=O)O)NC1=O)CCCC=CC[C@]1(CCCN1C(C)=O)C(=O)N[C@@H](CC(=O)O)C(=O)N[C@@H](CC(C)(C)C)C(=O)N2 (stereo partly drawn) ; value = 2440
